read-out: Glutamate-cysteine ligase catalytic (GCLC), GCLC (gene 2729); assay: LTEA_HepaRG_GCLC: Life Technologies and Expression Analysis (LTEA) Assay for Glutamate-cysteine ligase catalytic (GCLC) using HepaRG (AID 2283498); conditions: mRNA level, 48 h; actives raise or lower the signal
Active and inactive are the calls of the source. Rule for the calls: active = hit-call score of the fitted dose curve at least 0.9, where 1 is the maximum; inactive = score below 0.9.
Outcomes: active, inactive

>  <compound>
O=C(N[C@H]1CN2CCC1CC2)c1cc2ccoc2cn1

>  <classification>
inactive

$$$$
>  <compound>
O=C(O)C(F)(F)C(F)(F)C(F)(F)C(F)(F)C(F)(F)C(F)(F)C(F)(F)C(F)(F)C(F)(F)F

>  <classification>
active

$$$$
>  <compound>
CCC(C)c1cc([N+](=O)[O-])cc([N+](=O)[O-])c1O (configuration not stated)

>  <classification>
active

$$$$
>  <compound>
CC(c1ccc(O)cc1)(c1ccc(O)cc1)c1ccc(O)cc1

>  <classification>
active

$$$$
>  <compound>
CCC(C)(CC)c1cc(NC(=O)c2c(OC)cccc2OC)on1

>  <classification>
active

$$$$
>  <compound>
Oc1c(Cl)c(Cl)c(Cl)c(Cl)c1Cl

>  <classification>
active

$$$$
>  <compound>
CCSC(=O)N(CC)C1CCCCC1

>  <classification>
inactive

$$$$
>  <compound>
O=NN(c1ccccc1)c1ccccc1

>  <classification>
inactive

$$$$
>  <compound>
Oc1ccc(C(c2ccc(O)cc2)(C(F)(F)F)C(F)(F)F)cc1

>  <classification>
inactive

$$$$
>  <compound>
Clc1ccc(C(c2ccccc2Cl)C(Cl)(Cl)Cl)cc1 (configuration not stated)

>  <classification>
inactive

$$$$
>  <compound>
N#Cc1ccc(N(CC(N)=O)CC(F)(F)F)cc1C(F)(F)F

>  <classification>
inactive

$$$$
>  <compound>
CCOCCOC(C)=O

>  <classification>
inactive

$$$$

---

read-out: Lipoprotein lipase (LPL), LPL (gene 4023); test: LTEA_HepaRG_LPL: Life Technologies and Expression Analysis (LTEA) Assay for Lipoprotein lipase (LPL) using HepaRG (AID 2283515); details: mRNA level, 48 h; actives raise or lower the signal
Activity calls are given as the source filed them. Rule for the calls: active = hit-call score of the fitted dose curve at least 0.9, where 1 is the maximum; inactive = score below 0.9.
Outcomes: yes (1) for active, no (0) for inactive

>  <molecule>
Clc1ccc(C(c2ccccc2Cl)C(Cl)(Cl)Cl)cc1 (stereo unspecified)

>  <classification>
yes (1)

$$$$
>  <molecule>
O=NN(c1ccccc1)c1ccccc1

>  <classification>
no (0)

$$$$
>  <molecule>
CC(C)C(=O)OCC(C)(C)C(OC(=O)C(C)C)C(C)C (stereo unspecified)

>  <classification>
no (0)

$$$$
>  <molecule>
CC(C)(c1ccccc1)c1ccc(O)cc1

>  <classification>
no (0)

$$$$
>  <molecule>
CC#Cc1cc(C)nc(Nc2ccccc2)n1

>  <classification>
yes (1)

$$$$
>  <molecule>
Cc1cc2c3c(c1)C(c1ccccc1)=N[C@@H](NC(=O)c1ccncc1)C(=O)N3CC2

>  <classification>
yes (1)

$$$$
>  <molecule>
O=S(=O)(O)C(F)(F)C(F)(F)C(F)(F)C(F)(F)F

>  <classification>
no (0)

$$$$
>  <molecule>
CC1=C2C[C@H]3[C@@H](CC=C4C[C@@H](O)CC[C@@]43C)[C@@H]2CC[C@]12O[C@@H]1C[C@H](C)CN[C@H]1[C@H]2C

>  <classification>
no (0)

$$$$
>  <molecule>
CCCCCCCCCC[N+](C)(C)CCCCCCCCCC

>  <classification>
yes (1)

$$$$
>  <molecule>
CCCCCCOC(=O)c1ccccc1C(=O)OCCCCCC

>  <classification>
no (0)

$$$$
>  <molecule>
CC(C)(O)C(=O)Nc1ccc([N+](=O)[O-])c(C(F)(F)F)c1

>  <classification>
no (0)

$$$$

Reference source: PubChem BioAssay (EPA / NIEHS)
